assay: basal CRE-LacZ reporter activity in PC12 – cell-based, unstimulated, primary screen (AID 1145); conditions: no forskolin, luminescence, 4.5 h, higher = more signal, called active from +8 up or from −8 down
Each entry gets No if its z-score stays under 0.2, and Yes if its z-score is 0.2 or above.

Would you please look over these solved cases?
[ask] Threshold query (z-score >= 0.2) on CCOC(=O)C[C@H]1[C@H](OC(=O)c2cc3ccccc3oc2=O)[C@@H](NC(=O)CC(C)C)c2cc(OCCCO)ccc2N1C(=O)c1ccc2ccccc2n1
[reply] Yes

[ask] Now the compound COCC(=C=CC[C@H](O)c1ccccc1OCCO)C[C@H](O)c1ccccn1
[reply] Yes

[ask] Now the compound COCCOC(=O)N1C(=O)[C@@]2(c3cc(C#CC4=CCCCC4)ccc31)[C@H](C(=O)Nc1nc3ccccc3s1)[C@H]1C(=O)O[C@H](c3ccccc3)[C@H](c3ccccc3)N1[C@@H]2c1ccc(O)cc1
[reply] Yes

[ask] Now the compound COC(=O)[C@@]1(Cc2ccc(F)cc2)[C@H]2c3cc(C(=O)N4CCCC4)n(CCc4c[nH]c5ccccc45)c3C[C@H]2CN1C(=O)c1ccccc1
[reply] Yes

[ask] Now the compound COC(=O)[C@@]1(Cc2ccc(OC)cc2)[C@H]2c3cc(C(=O)N4CCCC4)n(CCO)c3C[C@H]2CN1C(=O)c1ccccc1
[reply] Yes

[ask] Now the compound COc1ccc([Si](C)(C)[C@@H]2[C@@H](CCO)O[C@]3(C(=O)N(Cc4cccc(NC(=O)[C@H](C)O)c4)c4ccccc43)[C@H]2C)cc1
[reply] Yes

Further cases:
[ask] Threshold query (z-score >= 0.2) on COC(=O)[C@@]1(Cc2ccccc2)[C@H]2c3cc(C(=O)N(C)C)n(Cc4ccc(C)o4)c3C[C@H]2CN1C(=O)c1ccccc1
[reply] No

[ask] Now the compound CC(C)C[C@@H]1NC(=O)[C@@H]2C[C@H](C(=O)NCCCCCCN)[C@H](c3cccc(OCCO)c3)N2C1=O
[reply] No

[ask] Now the compound C=CCC(OC(C)=O)[C@@H]1[C@@H](N(Cc2cccc3ccccc23)C(=O)Cc2ccc(F)cc2)c2cc(OCCCO)ccc2N1C(=O)c1ccc2ccccc2c1 (some centres undefined)
[reply] No

[ask] Now the compound CCCC[C@@H]1C[C@H]1[C@@H](NC(=O)c1cccs1)c1ccccc1C(F)(F)F
[reply] Yes

[ask] Now the compound CCCC#C[Si](O[C@H](CC)c1cn([C@H](C)c2ccccc2)nn1)(C(C)C)C(C)C
[reply] No

[ask] Now the compound CN1C2C=C(CCCO)C(C3C(=O)N(C(N)=O)C(=O)C32)C1C1CC1 (centres undefined)
[reply] Yes

[ask] Now the compound [N-]=[N+]=Nc1ccccc1C[C@@]1(C(N)=O)N=C(c2ccc(OCCCO)cc2)O[C@@H]1c1ccccc1N=[N+]=[N-]
[reply] No

---

assay: JC-1 mitochondrial signal, unstimulated adipocytes – cell-based, JC-1 fluorescence, 3T3-L1 adipocytes, 24 h, 100 nL compound, profiling panel (AID 1168); details: JC-1 mitochondrial fluorescence, higher = more signal, called active from +8 up or from −8 down; also: test concentration not given here
Measured z-score, listed per entry for reference.
Output spec: single numeric token, no unit.

Please review the following examples before continuing.
[ask] Which z-score is reported for this molecule? CCCN1C(=O)[C@]2(Cc3ccccc31)N=C(c1ccc(OCCCO)cc1)O[C@@H]2c1ccccc1
[reply] -0.906

[ask] Now the molecule CS(=O)(=O)CCOC(=O)C1=CC(c2ccc(CO)cc2)=CC(C2CC2)N(Cc2sc3ccccc3c2Cl)C=C1C(=O)OCCS(C)(=O)=O (centres undefined)
[reply] 0.662

[ask] Now the molecule COc1ccc([Si](C)(C)[C@@H]2[C@@H](CC(=O)N3Cc4ccccc4C[C@H]3CO)O[C@]3(C(=O)N(Cc4ccc(N5C(=O)c6cccc7cccc5c67)cc4)c4ccccc43)[C@H]2C)cc1
[reply] -0.0452

The record that follows has no z-score shown yet.
[ask] Which z-score is reported for this molecule? COCCCNC(=O)[C@@]1(CCC(=O)OC(C)(C)C)N=C(c2ccc(OCCCO)cc2)O[C@H]1c1ccccc1N=[N+]=[N-]
[reply] 3.98

Values from PubChem BioAssay
